Value source: ChEMBL document CHEMBL1275440

# Tested on: Streptococcus viridans
# ASSAY: Antibacterial activity against Streptococcus viridans clinical isolate assessed as susceptibility level by broth microdilution method
# Type: functional
Below is a list of entries, each paired with its recorded Activity value.

| COMPOUND | Activity (%) |
| --- | --- |
| CC(=O)NC[C@H]1CN(c2ccc(N3CCOCC3)c(F)c2)C(=O)O1 [LINEZOLID] | 100 |
| CCC[C@@H]1C[C@@H](C(=O)N[C@@H]([C@H]2O[C@H](SC)[C@H](O)[C@@H](O)[C@H]2O)[C@H](C)Cl)N(C)C1 [CLINDAMYCIN] | 88 |
| CO/N=C(\C(=O)N[C@@H]1C(=O)N2C(C(=O)O)=C(CSc3nc(=O)c(O)nn3C)CS[C@H]12)c1csc(N)n1 [CEFTRIAXONE] | 75 |
| CC[C@H]1OC(=O)[C@H](C)[C@@H](O[C@H]2C[C@@](C)(OC)[C@@H](O)[C@H](C)O2)[C@H](C)[C@@H](O[C@@H]2O[C@H](C)C[C@H](N(C)C)[C@H]2O)[C@](C)(O)C[C@@H](C)C(=O)[C@H](C)[C@@H](O)[C@]1(C)O [ERYTHROMYCIN] | 63 |
| CN(C)[C@@H]1C(O)=C(C(N)=O)C(=O)[C@@]2(O)C(O)=C3C(=O)c4c(O)cccc4[C@@](C)(O)[C@H]3C[C@@H]12 [TETRACYCLINE] | 75 |
| CCCCCCCCCC(=O)N[C@@H](Cc1c[nH]c2ccccc12)C(=O)N[C@H](CC(N)=O)C(=O)N[C@@H](CC(=O)O)C(=O)N[C@@H]1C(=O)NCC(=O)N[C@@H](CCCN)C(=O)N[C@@H](CC(=O)O)C(=O)N[C@H](C)C(=O)N[C@@H](CC(=O)O)C(=O)NCC(=O)N[C@H](CO)C(=O)N[C@@H]([C@H](C)CC(=O)O)C(=O)N[C@@H](CC(=O)c2ccccc2N)C(=O)O[C@@H]1C | 100 |
| CC1(C)S[C@@H]2[C@H](NC(=O)Cc3ccccc3)C(=O)N2[C@H]1C(=O)O [PENICILLIN G] | 62 |
| CN[C@H](CC(C)C)C(=O)N[C@H]1C(=O)N[C@@H](CC(N)=O)C(=O)N[C@H]2C(=O)N[C@H]3C(=O)N[C@H](C(=O)N[C@H](C(=O)O)c4cc(O)cc(O)c4-c4cc3ccc4O)[C@H](O)c3ccc(c(Cl)c3)Oc3cc2cc(c3O[C@@H]2O[C@H](CO)[C@@H](O)[C@H](O)[C@H]2O[C@H]2C[C@](C)(N)[C@H](O)[C@H](C)O2)Oc2ccc(cc2Cl)[C@H]1O [VANCOMYCIN] | 100 |
| C[C@H]1COc2c(N3CCN(C)CC3)c(F)cc3c(=O)c(C(=O)O)cn1c23.C[C@H]1COc2c(N3CCN(C)CC3)c(F)cc3c(=O)c(C(=O)O)cn1c23.O [LEVOFLOXACIN] | 100 |
